Where do these numbers come from? They come from patent US10435398B2.

Collected pIC50 values appear next to each entry.
# SYSTEM: human orexin-1 receptor (Homo sapiens (Human), UniProt O43613)
# Sequence (O43613 whole entry): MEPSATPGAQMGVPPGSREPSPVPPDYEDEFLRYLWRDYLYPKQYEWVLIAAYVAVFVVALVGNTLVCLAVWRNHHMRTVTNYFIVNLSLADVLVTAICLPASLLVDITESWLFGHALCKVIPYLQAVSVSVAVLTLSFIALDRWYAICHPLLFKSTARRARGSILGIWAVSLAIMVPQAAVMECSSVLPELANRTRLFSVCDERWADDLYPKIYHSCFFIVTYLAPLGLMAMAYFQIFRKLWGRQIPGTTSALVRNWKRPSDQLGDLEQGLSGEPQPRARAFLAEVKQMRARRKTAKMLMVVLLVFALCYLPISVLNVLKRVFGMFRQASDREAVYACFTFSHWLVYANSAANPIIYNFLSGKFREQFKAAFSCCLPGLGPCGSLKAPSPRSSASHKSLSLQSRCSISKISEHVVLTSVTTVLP
# EXPERIMENTAL_PROTOCOL: FLIPR Ca2+ Flux Assay, hOX1R
# REPORTED_CONDITIONS: CHO cells expressing human orexin-1 receptor; agonist 70 pM Ala-6,12 human orexin-A
pIC50: −log10 of the molar value.
PARAMETER: pIC50

1. CCCN(CCc1nc(C(C)(C)O)c(C)o1)C(=O)c1ccccc1-n1nccn1	5.62
2. Cc1oc(CCN(CC(F)F)C(=O)c2ccccc2-n2nccn2)nc1C(C)(C)O	< 5.00
3. CCN(CCc1nc(C(C)(C)O)c(C)o1)C(=O)c1ccccc1-n1ncnn1	< 5.00
4. CCN(CCc1nc(C(C)(C)O)c(C)o1)C(=O)c1ccccc1C1CC1	< 5.00
5. CCN(CCc1nc(C(C)(C)O)c(C)o1)C(=O)c1cc(F)ccc1-n1nccn1	< 5.00
6. CCN(CCc1nc(C(C)(C)O)c(C)o1)C(=O)c1cccc(C)c1-n1nccn1	< 5.00
7. C=CCN(CCc1nc(C(C)(C)O)c(C)o1)C(=O)c1ccccc1-n1nccn1	6.00
8. Cc1oc(CCN(C(=O)c2ccccc2-n2nccn2)C2CCC2)nc1C(C)(C)O	5.09
9. COCCCN(CCc1nc(C(C)(C)O)c(C)o1)C(=O)c1ccccc1-n1nccn1	< 5.00
